System: LMP1 expression in Kem I cells
Experiment: microbe, parasite or virus in culture
Assay type: cell-based, EBV
Details: human gammaherpesvirus 4, 48 h, read-out: Average LMP1 Fold Increase, Kem I cells, 2.5 uM, 48 hours, average of replicates 1 and 2
Structures can show the parent of a compound that is named as a salt.
MEASURED_QUANTITY: fold induction at 2.5 µM
The answer should be written as a number, with no unit following it.

Quick one: fold induction at 2.5 µM of COCCCC/C(=N\OCCN)c1ccc(C(F)(F)F)cc1 [Fluvoxamine maleate] ?
0.67

Quick one: fold induction at 2.5 µM of NC(=O)N1c2ccccc2CC(=O)c2ccccc21 [Oxcarbazepine] ?
0.46

Quick one: fold induction at 2.5 µM of CC[C@H](NC(=O)[C@H](C)NC)C(=O)N1C[C@@H](O)C[C@H]1Cc1c(-c2[nH]c3cc(F)ccc3c2C[C@@H]2C[C@H](O)CN2C(=O)[C@H](CC)NC(=O)[C@H](C)NC)[nH]c2cc(F)ccc12 [Birinapant] ?
1.03

Quick one: fold induction at 2.5 µM of N#Cc1ccc(C(c2ccc(C#N)cc2)n2cncn2)cc1 [Letrozole] ?
1.05

Quick one: fold induction at 2.5 µM of CN(C)CCc1c[nH]c2ccc(Cn3cncn3)cc12 [Rizatriptan Benzoate] ?
0.15

Quick one: fold induction at 2.5 µM of COc1ccc([C@]2(C#N)CC[C@@H](C(=O)O)CC2)cc1OC1CCCC1 [Cilomilast] ?
1.06

Quick one: fold induction at 2.5 µM of Cc1cc2c(C(C)C)c(O)c(O)c(C=O)c2c(O)c1-c1c(C)cc2c(C(C)C)c(O)c(O)c(C=O)c2c1O [AT101] ?
1.04

Quick one: fold induction at 2.5 µM of COc1ccc(C2CNC(=O)C2)cc1OC1CCCC1 (centres unmarked) [Rolipram] ?
0.94

Quick one: fold induction at 2.5 µM of Cc1ccc(-c2cc(C(F)(F)F)nn2-c2ccc(S(N)(=O)=O)cc2)cc1 [Celecoxib] ?
0.62

Quick one: fold induction at 2.5 µM of C[C@H](NCc1ccc(OCc2cccc(F)c2)cc1)C(N)=O [Safinamide Mesylate] ?
0.95

Quick one: fold induction at 2.5 µM of COCCOc1ccc2c(c1)ncn2-c1ccc2cccc(N3CCC(N)CC3)c2n1 [CP-673451] ?
0.49

Quick one: fold induction at 2.5 µM of Cc1cc(C(C)(C)C)c(O)c(C)c1CC1=NCCN1 [Oxymetazoline HCl] ?
0.66

Quick one: fold induction at 2.5 µM of Cc1[nH]c(/C=C2\C(=O)Nc3ccc(S(=O)(=O)N(C)c4cccc(Cl)c4)cc32)c(C)c1C(=O)N1CCN(C)CC1 [SU11274] ?
0.94

Quick one: fold induction at 2.5 µM of Cc1[nH]c(/C=C2\C(=O)Nc3ccc(S(=O)(=O)Cc4c(Cl)cccc4Cl)cc32)c(C)c1C(=O)N1CCC[C@@H]1CN1CCCC1 [PHA-665752] ?
0.69

Quick one: fold induction at 2.5 µM of CCN[C@H]1CN(CCCOC)S(=O)(=O)c2sc(S(N)(=O)=O)cc21 [Brinzolamide] ?
0.21

Quick one: fold induction at 2.5 µM of Cc1cc(OCc2nnc(SC3CCCC3)n2-c2cccnc2)ccc1-c1ccc(S(C)(=O)=O)cc1 [NMS-873] ?
1

Quick one: fold induction at 2.5 µM of C=C1C(=O)O[C@@H]2/C=C(\C)CC/C=C(\C)CC[C@@H]12 [Costunolide] ?
1.21
